- tested_target: 5-HT7A (Homo sapiens, UniProt P34969)
- Construct: purchased NIMH Psychoactive Drug Screening Program (PDSP)
- Sequence (P34969 1-445 isoform P34969-2): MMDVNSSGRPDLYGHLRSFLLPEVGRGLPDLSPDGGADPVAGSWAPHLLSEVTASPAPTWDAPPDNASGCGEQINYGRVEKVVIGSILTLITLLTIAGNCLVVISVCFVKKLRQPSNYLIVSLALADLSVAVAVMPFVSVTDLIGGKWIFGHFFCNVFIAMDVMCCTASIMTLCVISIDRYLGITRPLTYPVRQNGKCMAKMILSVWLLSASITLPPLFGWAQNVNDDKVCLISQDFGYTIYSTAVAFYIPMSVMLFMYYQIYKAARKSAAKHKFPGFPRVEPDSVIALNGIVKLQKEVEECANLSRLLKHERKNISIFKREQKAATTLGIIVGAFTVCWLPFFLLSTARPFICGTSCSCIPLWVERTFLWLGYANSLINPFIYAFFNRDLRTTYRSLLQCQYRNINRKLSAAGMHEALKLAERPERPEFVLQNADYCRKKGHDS
- test_details: PDSP primary binding 5-HT7A
- stated_conditions: 1.5 h; primary binding, 10,000 nM; last figure of the line = mean of the 4 before it; read-out: 5-HT7A, PDSP raw data, mean

[
  {
    "smiles_code": "CCc1noc(-c2ncn3c2[C@@H](C)N=C(c2ccccc2F)c2cc(-c4ccccc4)ccc2-3)n1",
    "inhibition at 10 µM [%]": 8.12
  },
  {
    "smiles_code": "CC(C)c1noc(-c2ncn3c2[C@@H](C)N=C(c2ccccc2F)c2cc(Cl)ccc2-3)n1",
    "inhibition at 10 µM [%]": 12.1
  },
  {
    "smiles_code": "CCc1noc(-c2ncn3c2[C@@H](C)N=C(c2ccccc2F)c2cc(C4CC4)ccc2-3)n1",
    "inhibition at 10 µM [%]": 4.98
  },
  {
    "smiles_code": "C[C@H]1N=C(c2ccccc2F)c2cc(-c3ccccc3)ccc2-n2cnc(C(=O)N(C)C)c21",
    "inhibition at 10 µM [%]": 4.31
  },
  {
    "smiles_code": "CCc1noc(-c2ncn3c2CN=C(c2ccccc2F)c2cc(C4CC4)ccc2-3)n1",
    "inhibition at 10 µM [%]": 9.22
  },
  {
    "smiles_code": "C#Cc1ccc2c(c1)C(c1ccccc1F)=N[C@H](C)c1c(C(=S)N(C)C)ncn1-2",
    "inhibition at 10 µM [%]": 4.31
  },
  {
    "smiles_code": "C#Cc1ccc2c(c1)C(c1ccccn1)=N[C@@H](C)c1c(C(=O)N(C)C)ncn1-2",
    "inhibition at 10 µM [%]": -9.64
  },
  {
    "smiles_code": "C#Cc1ccc2c(c1)C(c1ccccn1)=N[C@@H](C)c1c(C(=O)NC)ncn1-2",
    "inhibition at 10 µM [%]": -13.5
  }
]

====

- tested_target: Alpha2B (Homo sapiens)
- Construct: purchased NIMH Psychoactive Drug Screening Program (PDSP)
- Sequence (P18089 1-450): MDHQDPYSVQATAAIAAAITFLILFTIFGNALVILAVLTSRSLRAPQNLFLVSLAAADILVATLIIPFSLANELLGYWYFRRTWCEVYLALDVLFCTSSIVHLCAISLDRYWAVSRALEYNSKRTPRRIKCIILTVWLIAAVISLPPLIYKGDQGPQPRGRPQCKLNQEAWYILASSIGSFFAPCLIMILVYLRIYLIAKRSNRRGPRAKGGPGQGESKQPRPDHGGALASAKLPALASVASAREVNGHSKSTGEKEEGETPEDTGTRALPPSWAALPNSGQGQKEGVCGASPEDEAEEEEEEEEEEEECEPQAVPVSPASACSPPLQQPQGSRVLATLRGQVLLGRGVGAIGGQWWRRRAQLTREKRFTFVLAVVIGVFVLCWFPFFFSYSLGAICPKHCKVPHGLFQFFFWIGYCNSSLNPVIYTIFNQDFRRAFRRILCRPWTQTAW
- test_details: PDSP primary binding Alpha2B
- stated_conditions: 1.5 h; primary binding, 10,000 nM; last figure of the line = mean of the 4 before it; read-out: Alpha2B, PDSP raw data, mean
# inhibition at 10 µM values compiled below

[
  {
    "smiles_code": "CCc1noc(-c2ncn3c2CN=C(c2ccccc2F)c2cc(C4CC4)ccc2-3)n1",
    "unit_of_measurement": "%",
    "inhibition at 10 µM": 36.6
  },
  {
    "smiles_code": "CCc1noc(-c2ncn3c2[C@@H](C)N=C(c2ccccc2F)c2cc(-c4ccccc4)ccc2-3)n1",
    "unit_of_measurement": "%",
    "inhibition at 10 µM": 45.7
  },
  {
    "smiles_code": "CCc1noc(-c2ncn3c2[C@@H](C)N=C(c2ccccc2F)c2cc(Cl)ccc2-3)n1",
    "unit_of_measurement": "%",
    "inhibition at 10 µM": 16.6
  },
  {
    "smiles_code": "C#Cc1ccc2c(c1)C(c1ccccc1Cl)=N[C@H](C)c1c(C(=O)N(C)CC)ncn1-2",
    "unit_of_measurement": "%",
    "inhibition at 10 µM": 7.23
  },
  {
    "smiles_code": "C[C@H]1N=C(c2ccccc2F)c2cc(Cl)ccc2-n2cnc(-c3nc(C4CC4)no3)c21",
    "unit_of_measurement": "%",
    "inhibition at 10 µM": 17.6
  },
  {
    "smiles_code": "CC(C)c1noc(-c2ncn3c2[C@@H](C)N=C(c2ccccc2F)c2cc(Cl)ccc2-3)n1",
    "unit_of_measurement": "%",
    "inhibition at 10 µM": 18.5
  },
  {
    "smiles_code": "C#Cc1ccc2c(c1)C(c1ccccn1)=N[C@@H](C)c1c(C(=O)NC)ncn1-2",
    "unit_of_measurement": "%",
    "inhibition at 10 µM": 4.64
  },
  {
    "smiles_code": "CCc1noc(-c2ncn3c2[C@@H](C)N=C(c2ccccc2F)c2cc(C4CC4)ccc2-3)n1",
    "unit_of_measurement": "%",
    "inhibition at 10 µM": 44.2
  }
]

====

- tested_target: 5-HT6 (Homo sapiens)
- Construct: purchased NIMH Psychoactive Drug Screening Program (PDSP)
- Sequence (P50406 whole entry): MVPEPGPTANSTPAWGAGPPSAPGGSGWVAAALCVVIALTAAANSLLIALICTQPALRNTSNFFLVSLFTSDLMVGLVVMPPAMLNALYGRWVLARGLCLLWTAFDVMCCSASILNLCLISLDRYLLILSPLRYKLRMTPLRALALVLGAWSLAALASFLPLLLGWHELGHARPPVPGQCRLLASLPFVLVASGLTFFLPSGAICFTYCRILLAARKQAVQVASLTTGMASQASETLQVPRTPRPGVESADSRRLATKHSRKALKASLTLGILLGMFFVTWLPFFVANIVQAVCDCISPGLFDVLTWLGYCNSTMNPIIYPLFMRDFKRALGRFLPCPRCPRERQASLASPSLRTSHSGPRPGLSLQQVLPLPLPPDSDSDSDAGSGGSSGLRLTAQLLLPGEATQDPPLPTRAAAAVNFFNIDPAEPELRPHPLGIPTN
- test_details: PDSP primary binding 5-HT6
- stated_conditions: 1.5 h; primary binding, 10,000 nM; last figure of the line = mean of the 4 before it; read-out: 5-HT6, PDSP raw data, mean
# inhibition at 10 µM values compiled below

[
  {
    "smiles_code": "CCc1noc(-c2ncn3c2[C@@H](C)N=C(c2ccccc2F)c2cc(-c4ccccc4)ccc2-3)n1",
    "unit_of_measurement": "%",
    "inhibition at 10 µM": 10.3
  },
  {
    "smiles_code": "C#Cc1ccc2c(c1)C(c1ccccc1Cl)=N[C@H](C)c1c(C(=O)NC)ncn1-2",
    "unit_of_measurement": "%",
    "inhibition at 10 µM": -8.24
  },
  {
    "smiles_code": "C[C@H]1N=C(c2ccccc2F)c2cc(-c3ccccc3)ccc2-n2cnc(C(=O)N(C)C)c21",
    "unit_of_measurement": "%",
    "inhibition at 10 µM": 24.6
  },
  {
    "smiles_code": "C#Cc1ccc2c(c1)C(c1ccccn1)=N[C@@H](C)c1c(C(=O)N(C)C)ncn1-2",
    "unit_of_measurement": "%",
    "inhibition at 10 µM": 18.1
  }
]

====

# Kainate (Rat Brain), PDSP raw data, mean values compiled below
- System: Kainate (Rat Brain)
- test_details: PDSP primary binding Kainate (Rat Brain)
- stated_conditions: primary binding, 10,000 nM; last figure of the line = mean of the 4 before it
attribute_measured: Kainate (Rat Brain), PDSP raw data, mean (%)

[
  {
    "smiles_code": "CCc1noc(-c2ncn3c2[C@@H](C)N=C(c2ccccc2F)c2cc(C4CC4)ccc2-3)n1",
    "unit_of_measurement": "%",
    "reported_value": 38.21
  },
  {
    "smiles_code": "CCc1noc(-c2ncn3c2CN=C(c2ccccc2F)c2cc(C4CC4)ccc2-3)n1",
    "unit_of_measurement": "%",
    "reported_value": 42.42
  },
  {
    "smiles_code": "CC(C)c1noc(-c2ncn3c2[C@@H](C)N=C(c2ccccc2F)c2cc(Cl)ccc2-3)n1",
    "unit_of_measurement": "%",
    "reported_value": 35.39
  },
  {
    "smiles_code": "CCc1noc(-c2ncn3c2[C@@H](C)N=C(c2ccccc2F)c2cc(Cl)ccc2-3)n1",
    "unit_of_measurement": "%",
    "reported_value": 42.86
  },
  {
    "smiles_code": "C#Cc1ccc2c(c1)C(c1ccccc1F)=N[C@H](C)c1c(C(=S)N(C)C)ncn1-2",
    "unit_of_measurement": "%",
    "reported_value": 3.43
  },
  {
    "smiles_code": "C[C@H]1N=C(c2ccccc2F)c2cc(-c3ccccc3)ccc2-n2cnc(C(=O)N(C)C)c21",
    "unit_of_measurement": "%",
    "reported_value": 3.43
  },
  {
    "smiles_code": "C#Cc1ccc2c(c1)C(c1ccccc1Cl)=N[C@H](C)c1c(C(=O)N(C)CC)ncn1-2",
    "unit_of_measurement": "%",
    "reported_value": 16.79
  },
  {
    "smiles_code": "C#Cc1ccc2c(c1)C(c1ccccn1)=N[C@@H](C)c1c(C(=O)NC)ncn1-2",
    "unit_of_measurement": "%",
    "reported_value": 37.08
  }
]

====

# GABAA, PDSP raw data, mean values compiled below
- System: GABAA
- test_details: PDSP primary binding GABAA
- stated_conditions: primary binding, 10,000 nM; last figure of the line = mean of the 4 before it; some tables list it twice

[
  {
    "compound": "CCc1noc(-c2ncn3c2[C@@H](C)N=C(c2ccccc2F)c2cc(Cl)ccc2-3)n1 [Compound 36]",
    "GABAA, PDSP raw data, mean": "13.12%"
  },
  {
    "compound": "CCc1noc(-c2ncn3c2CN=C(c2ccccc2F)c2cc(C4CC4)ccc2-3)n1 [Compound 44]",
    "GABAA, PDSP raw data, mean": "11.92%"
  },
  {
    "compound": "C#Cc1ccc2c(c1)C(c1ccccn1)=N[C@@H](C)c1c(C(=O)N(C)C)ncn1-2 [Compound 31]",
    "GABAA, PDSP raw data, mean": "9.39%"
  },
  {
    "compound": "C#Cc1ccc2c(c1)C(c1ccccc1F)=N[C@H](C)c1c(C(=S)N(C)C)ncn1-2 [Compound 33]",
    "GABAA, PDSP raw data, mean": "-4.01%"
  }
]
